Target: human Caf1/CNOT7 (Homo sapiens, UniProt Q9UIV1)
Sequence (Q9UIV1 whole entry): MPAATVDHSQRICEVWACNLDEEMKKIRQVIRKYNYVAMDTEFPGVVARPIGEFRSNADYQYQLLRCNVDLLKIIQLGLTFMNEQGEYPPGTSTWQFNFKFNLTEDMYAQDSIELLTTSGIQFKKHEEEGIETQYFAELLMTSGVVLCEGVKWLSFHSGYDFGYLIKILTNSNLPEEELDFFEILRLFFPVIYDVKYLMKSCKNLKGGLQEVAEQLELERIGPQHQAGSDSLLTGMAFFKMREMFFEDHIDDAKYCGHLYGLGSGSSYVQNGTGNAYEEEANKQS
Test: Fluorescence-based Caf1/CNOT7 nuclease activity assay (Flc-RNA substrate, TAMRA-labelled DNA probe)
Conditions: mean ± standard deviation; 0.4 μM Caf1/CNOT7, 0.1 μM Flc-RNA substrate, 15 min preincubation, 60 min at 30 °C
assay_readout: pIC50
Answers are plain numbers, as −log10 of the molar value.

O=S(=O)(Nc1ccc(SC(F)F)cc1)c1cnn(-c2ccccc2)c1 : 4.11
Cc1cc(NC(=O)NC2(C(F)(F)F)Oc3ccc(Cl)cc3O2)no1 (centres unmarked) : 4.77

List the reported pIC50 of each compound below.
1. Cc1ccc(CN(Cc2ccc(C)n2C)C(=O)COc2ccccc2C#N)n1C
2. CC(C)CCn1c(SCC(=O)NC(N)=O)nc2cc(Cl)ccc2c1=O
3. O=C(Nc1cc(Br)cnc1O)c1ccc2ccccc2c1
4. CCOC(=O)Cc1ncccc1C(=O)Nc1ccc(Br)c(C(F)(F)F)c1

Found:
[4.61, 4.81, 3.59, 4.24]

List the reported pIC50 of each compound below.
1. Cc1sc2nc(COC(=O)Cn3cc(C(F)(F)F)ccc3=O)nc(N)c2c1C
2. N#Cc1cccc(NC(=O)C(C#N)c2nc3ccccc3s2)c1 (centres unmarked)
3. CC(=O)c1c(C)[nH]c(C(=O)Nc2nnc(Cc3ccccc3)s2)c1C
4. O=C(Nc1nc(-c2ccc(Cl)s2)cs1)c1ccc(O)nc1

Found:
3.91
4.74
4.68
3.79

Lookup: What value of pIC50 has been reported for the following compound? Cc1cccc2sc(NC(=O)CCC(=O)c3ccc(F)cc3)nc12
Found: 4.72
